# assaySystem: P450 BM3 (Priestia megaterium)
# method: P450 BM3 catalysed oxidation of butane and propane in the presence of additives
# Type: biochemical, Bacillus megaterium
# Parameters: polyhistidine (His6) tag from vector pETM11 (N); made in house; host or cells: E. coli BL21 (DE3) GOLD
# details: Butane oxidation product, 1 mM additive, 17.5 h, 25° C
The entries below are paired with their reported % ee.

Previously resolved entries follow.
molecule: O=C(O)C(F)(F)C(F)(F)C(F)(F)C(F)(F)C(F)(F)C(F)(F)C(F)(F)C(F)(F)C(F)(F)C(F)(F)F [Additive 1e, perfluoroundecanoic acid]
% ee: 19%

molecule: O=C(O)C(F)(F)C(F)(F)C(F)(F)C(F)(F)C(F)(F)C(F)(F)C(F)(F)C(F)(F)C(F)(F)F [Additive 1d, perfluorodecanoic acid]
% ee: 20%

molecule: O=C(O)C(F)(F)F [Additive 1a]
% ee: 32%

molecule: O=C(O)C(F)(F)C(F)(F)C(F)(F)C(F)(F)C(F)(F)C(F)(F)F [Additive 1b, perfluoroheptanoic acid]
% ee: 22%

Lab note: next molecule to report on.
According to the records, this molecule O=C(O)C(F)(F)C(F)(F)C(F)(F)C(F)(F)C(F)(F)C(F)(F)C(F)(F)C(F)(F)F [Additive 1c, perfluorononanoic acid] displays % ee of 23%

* * *

# assaySystem: P450 BM3 (Priestia megaterium)
# method: P450 BM3 catalysed oxidation of butane and propane in the presence of additives
# Type: biochemical, Bacillus megaterium
# Design: polyhistidine (His6) tag from vector pETM11 (N); made in house; host or cells: E. coli BL21 (DE3) GOLD
# details: Butane (10% n-butane, 8% O2, 82% N2, 10 bar), 1 mM additive, 2.3 μM enzyme, 17.5 h, 25° C
Simple rule here: Total product formed less than 6 mM is Yes, otherwise No.

Please review the entries below; each comes with its answer.
compound: O=C(O)C(F)(F)C(F)(F)C(F)(F)C(F)(F)C(F)(F)C(F)(F)C(F)(F)C(F)(F)C(F)(F)F [Additive 1d, perfluorodecanoic acid]
category: Yes
--
compound: O=C(O)C(F)(F)F [Additive 1a]
category: Yes
--
compound: O=C(O)C(F)(F)C(F)(F)C(F)(F)C(F)(F)C(F)(F)C(F)(F)C(F)(F)C(F)(F)C(F)(F)C(F)(F)F [Additive 1e, perfluoroundecanoic acid]
category: Yes
--
compound: O=C(O)C(F)(F)C(F)(F)C(F)(F)C(F)(F)C(F)(F)C(F)(F)F [Additive 1b, perfluoroheptanoic acid]
category: No

Determine if O=C(O)C(F)(F)C(F)(F)C(F)(F)C(F)(F)C(F)(F)C(F)(F)C(F)(F)C(F)(F)F [Additive 1c, perfluorononanoic acid] shows Total product formed strictly lower than 6 mM.
Yes

* * *

# assaySystem: P450 BM3 (Priestia megaterium, UniProt P14779)
# Sequence (P14779 whole entry): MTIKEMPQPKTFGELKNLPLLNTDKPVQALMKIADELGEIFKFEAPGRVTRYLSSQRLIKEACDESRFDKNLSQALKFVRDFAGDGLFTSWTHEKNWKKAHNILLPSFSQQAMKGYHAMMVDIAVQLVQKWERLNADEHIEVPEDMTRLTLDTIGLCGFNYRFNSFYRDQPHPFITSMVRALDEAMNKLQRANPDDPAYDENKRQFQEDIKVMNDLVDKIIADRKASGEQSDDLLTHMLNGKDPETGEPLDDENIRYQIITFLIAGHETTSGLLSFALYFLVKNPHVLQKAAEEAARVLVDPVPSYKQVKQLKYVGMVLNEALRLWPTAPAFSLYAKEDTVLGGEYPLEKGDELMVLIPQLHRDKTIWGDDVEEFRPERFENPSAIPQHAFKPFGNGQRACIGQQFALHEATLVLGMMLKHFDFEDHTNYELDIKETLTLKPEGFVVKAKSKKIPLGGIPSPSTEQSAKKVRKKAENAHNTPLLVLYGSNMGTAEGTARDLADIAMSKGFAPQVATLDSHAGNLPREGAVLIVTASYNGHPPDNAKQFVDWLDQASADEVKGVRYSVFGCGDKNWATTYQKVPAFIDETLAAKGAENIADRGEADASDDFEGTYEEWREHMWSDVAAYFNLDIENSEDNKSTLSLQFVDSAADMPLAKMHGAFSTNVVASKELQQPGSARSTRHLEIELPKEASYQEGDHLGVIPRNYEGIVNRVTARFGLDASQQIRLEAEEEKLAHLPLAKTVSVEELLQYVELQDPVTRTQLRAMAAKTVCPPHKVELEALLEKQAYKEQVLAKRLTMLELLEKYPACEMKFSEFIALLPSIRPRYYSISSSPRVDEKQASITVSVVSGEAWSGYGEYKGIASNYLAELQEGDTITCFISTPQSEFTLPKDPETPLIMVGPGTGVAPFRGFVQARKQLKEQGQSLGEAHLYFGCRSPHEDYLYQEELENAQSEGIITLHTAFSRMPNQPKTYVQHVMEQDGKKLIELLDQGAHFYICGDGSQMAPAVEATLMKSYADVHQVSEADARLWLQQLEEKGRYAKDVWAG
# method: P450 BM3 catalysed oxidation of methane to methanol in the presence of an additive
# Format: biochemical, Bacillus megaterium
# Design: polyhistidine (His6) tag from vector pETM11 (N); made in house; host or cells: E. coli BL21 (DE3) GOLD
# details: methane, 10 bar, 1 mM additive, 1.3 μM enzyme, 21 h, 25° C
parameter: TON
Answer as a number with no unit attached.

compound: O=C(O)C(F)(F)C(F)(F)C(F)(F)C(F)(F)C(F)(F)C(F)(F)C(F)(F)C(F)(F)C(F)(F)F [Additive 1d, perfluorodecanoic acid]
parameter: TON
recordedResult: 2472
//
compound: O=C(O)C(F)(F)C(F)(F)C(F)(F)C(F)(F)C(F)(F)C(F)(F)C(F)(F)C(F)(F)C(F)(F)C(F)(F)F [Additive 1e, perfluoroundecanoic acid]
parameter: TON
recordedResult: 1353
//
compound: O=C(O)C(F)(F)C(F)(F)C(F)(F)C(F)(F)C(F)(F)C(F)(F)C(F)(F)C(F)(F)C(F)(F)C(F)(F)C(F)(F)F [Additive 1f, perfluorododecanoic acid]
parameter: TON
recordedResult: 933

Known value: P450 BM3 (Priestia megaterium, UniProt P14779) TON of the compound O=C(O)C(F)(F)C(F)(F)C(F)(F)C(F)(F)C(F)(F)C(F)(F)C(F)(F)C(F)(F)C(F)(F)C(F)(F)C(F)(F)C(F)(F)F [Additive 1g, perfluorotridecanoic acid] equals 560

Known value: P450 BM3 (Priestia megaterium, UniProt P14779) TON of the compound O=C(O)C(F)(F)C(F)(F)C(F)(F)C(F)(F)C(F)(F)C(F)(F)C(F)(F)C(F)(F)F [Additive 1c, perfluorononanoic acid] equals 2053

Known value: P450 BM3 (Priestia megaterium, UniProt P14779) TON of the compound O=C(O)C(F)(F)C(F)(F)C(F)(F)C(F)(F)C(F)(F)C(F)(F)C(F)(F)C(F)(F)C(F)(F)C(F)(F)C(F)(F)C(F)(F)C(F)(F)F [Additive 1h, perfluorotetradecanoic acid] equals 210

All figures here come from patent US9428771B2.
